Where do these numbers come from? They come from paper PMC6491434.

Target: CDK9/T (Homo sapiens, UniProt P50750)
Sequence (P50750 whole entry, species assumed): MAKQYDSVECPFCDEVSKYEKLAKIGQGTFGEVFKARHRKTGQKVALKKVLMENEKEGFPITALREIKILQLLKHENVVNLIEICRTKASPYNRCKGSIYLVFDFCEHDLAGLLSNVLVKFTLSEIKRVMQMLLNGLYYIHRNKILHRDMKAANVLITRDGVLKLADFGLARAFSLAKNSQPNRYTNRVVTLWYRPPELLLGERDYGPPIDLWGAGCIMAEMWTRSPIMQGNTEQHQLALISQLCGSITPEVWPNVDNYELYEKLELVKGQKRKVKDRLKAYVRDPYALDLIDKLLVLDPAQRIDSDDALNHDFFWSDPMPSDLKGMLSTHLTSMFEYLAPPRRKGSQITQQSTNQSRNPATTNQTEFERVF
Sequence (O60563 whole entry partner, species assumed): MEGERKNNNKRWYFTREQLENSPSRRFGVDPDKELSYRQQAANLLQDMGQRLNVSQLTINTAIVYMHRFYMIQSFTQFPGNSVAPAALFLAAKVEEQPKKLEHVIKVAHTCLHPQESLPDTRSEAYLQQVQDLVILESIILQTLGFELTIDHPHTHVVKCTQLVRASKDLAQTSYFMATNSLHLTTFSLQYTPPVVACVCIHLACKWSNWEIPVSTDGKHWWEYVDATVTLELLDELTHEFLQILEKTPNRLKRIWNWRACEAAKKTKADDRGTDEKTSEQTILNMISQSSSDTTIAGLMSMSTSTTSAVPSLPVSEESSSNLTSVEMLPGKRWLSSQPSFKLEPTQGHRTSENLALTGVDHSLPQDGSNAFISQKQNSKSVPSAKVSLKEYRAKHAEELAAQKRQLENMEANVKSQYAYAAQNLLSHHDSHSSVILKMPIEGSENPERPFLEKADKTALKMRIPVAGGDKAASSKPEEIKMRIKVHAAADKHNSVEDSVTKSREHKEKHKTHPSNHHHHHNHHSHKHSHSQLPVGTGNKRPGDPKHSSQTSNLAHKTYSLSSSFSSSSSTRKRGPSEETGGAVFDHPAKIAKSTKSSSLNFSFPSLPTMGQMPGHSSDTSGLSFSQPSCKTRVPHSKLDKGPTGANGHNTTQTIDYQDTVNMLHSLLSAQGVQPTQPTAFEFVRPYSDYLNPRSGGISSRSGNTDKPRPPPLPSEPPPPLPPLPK
Experiment: protein kinase catalytic activity assay, CDK9/cyclin T
Settings: read-out: IC50 towards CDK9/T
pIC50: −log10 of the molar value.
Outcome label depends on pIC50 relative to 5: at/above gives rule met, below gives rule not met.

- Molecule: "CC[C@@H](Nc1nc(NCc2cccc(F)c2)c2ncn(C3CCCC3)c2n1)C(=O)O"
  Class: "rule met"
- Molecule: "CC[C@@H](Nc1nc(NCc2ccccc2)c2ncn(C(C)C)c2n1)C(=O)O [M3, reference compound]"
  Class: "rule not met"
- Molecule: "CC(C)n1cnc2c(NCc3ccccc3)nc(N[C@@H](CO)C(=O)O)nc21"
  Class: "rule not met"
- Molecule: "CC[C@@H](Nc1nc(NCc2cccc(C(F)(F)F)c2)c2ncn(C3CCCC3)c2n1)C(=O)O"
  Class: "rule not met"
- Molecule: "CC[C@@H](Nc1nc(NCc2cccc(C(F)(F)F)c2)c2ncn(C(C)C)c2n1)C(=O)O"
  Class: "rule not met"
- Molecule: "CC[C@@H](Nc1nc(NCc2ccccc2)c2ncn(C3CCCC3)c2n1)C(=O)O"
  Class: "rule not met"
- Molecule: "CC[C@@H](Nc1nc(NCc2ccc(Cl)c(F)c2)c2ncn(C3CCCC3)c2n1)C(=O)O"
  Class: "rule met"
